Cited source: patent US7846944B2

Tested on: TNF-α secretion by LPS-treated THP1 cells
Test: Lipopolysaccharide-activated THP1 cell TNF production assay
Assay type: cell-based
Settings: Homo sapiens, THP-1, 3 h, read-out: IC50 in the THP-1 cellular TNF production assay
Method: Lipopolysaccharide-Activated THP1 Cell TNF Production Assay THP1 cells were resuspended in fresh THP1 media (RPMI 1640, 10% heat-inactivated FBS, 1×PGS, 1×NEAA, plus 30 μM βME) at a concentration of 1.5×10^6 cells per mL. […] Fifty microliters of conditioned media was transferred to a 96-well MULTI-ARRAY™ 96-well small spot plate—custom coated with MAB610 containing 100 μL of 2× Read Buffer P supplemented with 0.34 nM AF210NA polyclonal Ab labeled with ruthenium (MSD-Sulfo-TAG™-NHS ester). […]
Measured attribute: IC50

In [3]: df
Out[3]:
                                smiles_code    result
0  Cc1ccc(C(=O)NC2CC2)cc1-c1cc2cnn(-c3ccc(F)cc3F)c2n(C)c1=O  ≤ 175 nM

###

Target: recombinant human p38α (Homo sapiens, UniProt Q16539)
Sequence (Q16539 whole entry): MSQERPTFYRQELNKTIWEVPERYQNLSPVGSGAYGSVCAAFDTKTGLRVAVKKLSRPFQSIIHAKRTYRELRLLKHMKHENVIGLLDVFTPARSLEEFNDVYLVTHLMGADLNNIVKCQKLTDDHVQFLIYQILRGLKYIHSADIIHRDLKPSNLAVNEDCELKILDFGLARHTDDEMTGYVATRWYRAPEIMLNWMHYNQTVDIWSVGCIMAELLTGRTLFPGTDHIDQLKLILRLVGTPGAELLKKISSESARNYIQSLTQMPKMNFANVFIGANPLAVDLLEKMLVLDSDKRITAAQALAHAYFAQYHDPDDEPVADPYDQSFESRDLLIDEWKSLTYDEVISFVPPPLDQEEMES
Experiment: Purified and activated recombinant human p38α HTRF kinase assay
Conditions: 1 nM p38α, 50 μM ATP, GST-ATF2 substrate, read-out: p38a IC50
compounds and their reported IC50
Measured attribute: IC50 (nM)

In [3]: df
Out[3]:
                                smiles_code  measured_attribute  result
0  Cc1c(F)cc(C(=O)NC2CC2)cc1-c1cc2cnn(-c3ccccc3F)c2n(C)c1=O                IC50     2.2
1  Cn1c(=O)c(-c2cc(C(=O)NC3CC3)ccc2Cl)cc2cnn(-c3ccc(F)cc3)c21                IC50       6
2  Cc1ccc(C(=O)NC2CC2)cc1-c1cc2cnn(-c3ccc(F)cc3)c2n(C)c1=O                IC50     6.1
3  CCn1c(=O)c(-c2cc(C(=O)NC3CC3)cc(F)c2C)cc2cnn(-c3ccccc3F)c21                IC50     2.5
4  Cn1c(=O)c(-c2cc(C(=O)NC3CC3)ccc2CO)cc2cnn(-c3c(F)cccc3F)c21                IC50      21
5  Cc1c(F)cc(C(=O)Nc2ccon2)cc1-c1cc2cnn(-c3c(F)cccc3F)c2n(C)c1=O                IC50     2.4
6  Cc1ccc(C(=O)NC2(C)CC2)cc1-c1cc2cnn(-c3cc(F)ccc3F)c2n(C)c1=O                IC50     1.1
7  Cc1ccccc1-n1ncc2cc(-c3cc(C(=O)NC4CC4)cc(F)c3C)c(=O)n(C)c21                IC50     5.2
